Reference for the values: PubChem BioAssay

- SYSTEM UNDER TEST: Calmodulin-1 (Homo sapiens)
- TEST NAME: small molecules binding Ca-loaded calmodulin-1 – biochemical, small-molecule microarray, Cy5-labelled CALM1, plus calcium, artefact control for SMM control-protein annotation, profiling panel (AID 1112);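 also: score merges spot fluorescence with signal to noise from triplicate slides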
- REPORTED CONDITIONS: Cy5-CALM1 binding fluorescence, higher = more signal

COMPOUND | SYSTEM UNDER TEST | composite z-score
COCCOC(=O)N1C(=O)[C@@]2(c3ccccc31)[C@H](C(=O)N1CCN(c3ncccn3)CC1)[C@H]1C(=O)O[C@H](c3ccccc3)[C@H](c3ccccc3)N1[C@@H]2c1ccccc1OCCO | Calmodulin-1 (Homo sapiens) | 0.369
O=C1N(Cc2ccccc2)c2ccccc2C[C@@]12COC(c1ccc(OCCCO)cc1)=N2 | Calmodulin-1 (Homo sapiens) | 0.749
O=C(NCC(O)CO)C1N=C(c2ccc(OCCCO)cc2)N(c2ccccc2)O1 (centres undefined) | Calmodulin-1 (Homo sapiens) | -0.332
CN1C(=O)C2C(C1=O)C1C=C(CCCO)C2C(C2CC2)N1Cc1cccc(OC(F)(F)F)c1 (centres undefined) | Calmodulin-1 (Homo sapiens) | 0.951
CC(C)(C)N1CC=CC23O[C@@H]4/C=C\CCCOC(=O)C4[C@H]2C(=O)N(CCCCCO)[C@@H]3C1=O (some centres undefined) | Calmodulin-1 (Homo sapiens) | -0.893
CCCCC(O)C1C=CC2C(=O)N(c3ccccc3)C(=O)C2N1Nc1ccccc1 (centres undefined) | Calmodulin-1 (Homo sapiens) | 1.06
C=CCNC(=O)[C@H]1[C@@H]2C(=O)O[C@@H](c3ccccc3)[C@@H](c3ccccc3)N2[C@@H](c2ccc(OCCO)cc2)[C@]12C(=O)Nc1ccc(C#CC3(O)CCCCCC3)cc12 | Calmodulin-1 (Homo sapiens) | 0.229
Cc1ccc(S[C@]2(C(=O)NCCCN(C)C)CC(=O)N(Cc3ccccc3C(F)(F)F)[C@@H]2c2ccc(CO)cc2I)cc1 | Calmodulin-1 (Homo sapiens) | 0.236
Cc1ccc(N2C(=O)c3ccccc3[C@](C)(C(=O)NCCCN(C)C)[C@@H]2c2ccc(CO)cc2)nc1 | Calmodulin-1 (Homo sapiens) | -0.338
COC(=O)[C@@]1(Cc2ccccc2)[C@H]2c3cc(C(=O)N(C)C)n(Cc4ccc(S(C)(=O)=O)cc4)c3C[C@H]2CN1C(=O)c1ccccc1 | Calmodulin-1 (Homo sapiens) | 1.11
O=C(NCCN1CCOCC1)[C@@H]1c2ccccc2C(=O)N(Cc2ccccc2C(F)(F)F)[C@H]1c1ccc(CO)cc1 | Calmodulin-1 (Homo sapiens) | -0.56
C=CCN1C(=O)[C@]2(O[C@H](CCn3cc([C@H](O)c4ccccc4)nn3)[C@@H]([Si](C)(C)c3ccc(OC)cc3)[C@@H]2C)c2cc(NC(=O)c3ccc(OC)cc3)ccc21 | Calmodulin-1 (Homo sapiens) | -0.564
[N-]=[N+]=Nc1ccccc1C[C@@]1(C(=O)NCC(O)CO)N=C(c2ccc(OCCCO)cc2)O[C@@H]1c1ccccc1 (some centres undefined) | Calmodulin-1 (Homo sapiens) | 0.0985
C=CCNC(=O)[C@H]1[C@@H]2C(=O)O[C@@H](c3ccccc3)[C@@H](c3ccccc3)N2[C@@H](c2ccc(OCCO)cc2)[C@]12C(=O)Nc1ccccc12 | Calmodulin-1 (Homo sapiens) | 0.345

* * *

- Test system: Inhibin beta A chain (activin A)
- TEST NAME: small molecules binding activin A – biochemical, small-molecule microarray, 635 nm fluorescence scan, primary screen (AID 1107);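 also: mouse activin A protein probed at 4.33 µg/mL on printed slides; score merges bound-protein fluorescence near 667 nm with spot signal-to-noise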
- REPORTED CONDITIONS: INHBA, higher = more signal

COMPOUND | composite z-score
Cc1ccc(C(C)CC(O)C2C=CC3C(=O)N(C)C(=O)C3N2Nc2ccccc2)o1 (stereo unspecified) | 0.989
COc1ccc(C#Cc2ccc3c(c2)[C@]2(C(=O)N3)[C@H](C(=O)O)[C@H]3C(=O)O[C@H](c4ccccc4)[C@H](c4ccccc4)N3[C@@H]2c2ccccc2OCCO)cc1 | -0.658
O=C(O)[C@H](Cc1ccccc1)n1cc(C2(O)CCCCC2)nn1 | -0.0247
C=CCC(OC(C)=O)[C@@H]1[C@@H](N(Cc2cccc3ccccc23)C(=O)Cc2ccc(OC)cc2)c2cc(OCCCO)ccc2N1C(=O)c1ccc2ccccc2c1 (stereo partly specified) | 1.35
C#CCN1[C@@H](Cc2ccccc2)C(=O)O[C@H](Cc2ccccc2)[C@@H]1/C=C/C1CC1 | 0.781
O=C1[C@@H]2[C@@H](CC(COc3ccccc3)=C([C@H](O)CCc3ccccc3)[C@@H]2CO)C(=O)N1Cc1ccccc1 | 0.343
COc1ccccc1CN1C(=O)c2ccccc2[C@](Cc2ccccc2I)(C(=O)NCC(C)C)[C@@H]1c1ccc(CO)cc1 | -0.316
CN1C(=O)C2C=CC(C(O)c3ccc(-c4ccccc4)s3)N(NC(=O)OC(C)(C)C)C2C1=O (stereo unspecified) | 0.86
CCCNC(=O)[C@@]1(Sc2ccc(C)cc2)CC(=O)N(Cc2ccccc2Cl)[C@@H]1c1ccc(CO)cc1I | 0.472
COc1cc(C(O)C2C=CC3C(=O)N(c4ccccc4)C(=O)C3N2Nc2ccccc2)cc(OC)c1OC (stereo unspecified) | 0.484
Cc1ccc(S[C@]2(C(=O)NC(C)C)CC(=O)N(C3CCCCC3)[C@@H]2c2ccc(CO)cc2I)cc1 | 0.0441
CC(C)(C)N1CC=CC23O[C@@H]4/C=C\CCCOC(=O)C4[C@H]2C(=O)N(CCCO)[C@@H]3C1=O (stereo partly specified) | 0.076
CC(C)(C)OC(=O)CC[C@]1(C(=O)NCC(O)CO)N=C(c2ccc(OCCCO)cc2)O[C@H]1c1ccccc1N=[N+]=[N-] (stereo partly specified) | -0.0171
CC(C)=C1C(=O)C(c2ccccc2)=C2CN3C(=O)N(CCc4ccccc4)C(=O)[C@]3(C)[C@H]21 | 1.02
C[C@@H]1ON(c2ccc(I)cc2)[C@H](c2cccc(NC(=O)OCC3c4ccccc4-c4ccccc43)c2)[C@H]1C(=O)N1C(=O)OC[C@H]1Cc1ccccc1 | 0.529
CCOC(=O)C1=CC[C@@H](c2ccc(OC)cc2)N(S(=O)(=O)c2ccc(C)cc2)[C@H]1CC | 0.372

* * *

- System: glycogen synthase kinase-3 (GSK3A per assay name; protocol says GSK3B)
- TEST NAME: compounds binding glycogen synthase kinase-3 – biochemical, small-molecule microarray, 635 nm fluorescence, GSK3A, primary screen (AID 1103); also: the record names both GSK3A and GSK3B
- REPORTED CONDITIONS: fluorescence 635 nm, higher = more signal

MOLECULE | composite z-score
COc1ccc([Si](C)(C)[C@@H]2[C@@H](CC(=O)N(CCO)Cc3ccccc3)O[C@]3(C(=O)N(Cc4ccc(I)cc4)c4ccccc43)[C@H]2C)cc1 | 0.301
CC(C)(C)N1CC=CC23O[C@@H]4/C=C\CCCOC(=O)C4[C@H]2C(=O)N(CCCCCO)[C@@H]3C1=O (some centres undefined) | -0.581
CCCC[C@H]1OB(O)C[C@H]2C1=C(COc1ccccc1)C[C@H]1C(=O)C=CC(=O)[C@H]12 | 0.474
CCCN1C(=O)[C@@]2(c3ccc([N+](=O)[O-])cc3)CC(=O)N(CC34CC5CC(CC(C5)C3)C4)[C@@H]2c2ccc(CO)cc21 | -0.619
CN(C)CCCNC(=O)[C@@H]1c2ccccc2C(=O)N(Cc2ccccc2C(F)(F)F)[C@H]1c1ccc(CO)cc1 | 0.355
COC(=O)[C@H](Cc1ccccc1)N1CC2=CCCC=C[C@@H]2[C@H]1[C@H](O)Cc1ccccc1 | 0.171
C[N+](C)(C)CCCC[C@@H]1NC(=O)[C@H]2C[C@@H](C(=O)NCCCCCNC(=O)CS)[C@@H](c3cccc(OCCO)c3)N2C1=O | 0.272
CC1CC/C=C\[C@H]2OC34C=CCN(Cc5ccccc5)C(=O)[C@H]3N(CCCCCCO)C(=O)[C@@H]4C2C(=O)O1 (some centres undefined) | -0.587
CO[C@H]1O[C@H](CO)[C@@H](OC(=O)Nc2ccc3c(c2)OCO3)[C@H](OC(=O)Nc2ccccc2-c2ccccc2)[C@H]1OC(=O)Nc1ccccc1-c1ccccc1 | 1.31
CN1C(=O)C2C(C1=O)C1C=C(c3ccc(CO)cc3)C2C(C2CC2)N1C (centres undefined) | 0.249
O=C1O[C@H](c2ccccc2)[C@H](c2ccccc2)N2[C@H]1[C@@H](C(=O)N1CCN(c3ncccn3)CC1)[C@]1(C(=O)Nc3ccc(C#CCCO)cc31)[C@H]2c1ccc(O)cc1 | -0.906
C=C(C)[C@@H]1CC=C(C(O)C2C=CC3C(=O)N(C)C(=O)C3N2Nc2ccc([N+](=O)[O-])cc2[N+](=O)[O-])CC1 (some centres undefined) | 1.28
CCCCC(O)C1C=CC2C(=O)N(c3ccccc3)C(=O)C2N1Nc1ccccc1 (centres undefined) | -0.501
C=CCOC(=O)[C@@H]1[C@H]2C(=O)O[C@H](c3ccccc3)[C@H](c3ccccc3)N2[C@H](c2ccc(OCCOC(=O)[C@H]3C[C@H]4C(=O)N[C@@H](CCCCN(C)C)C(=O)N4[C@H]3c3ccc(O)cc3)cc2)[C@@]12C(=O)Nc1ccc(I)cc12 | 1.33
